Biological target: Neu5Ac(a2-3)GalNAc(b1-4)GlcNAc
Assay: glycan array binding signal (z-score within array); higher = stronger binding
Conditions: glycan notation: IUPAC condensed, linker removed
Only a selection was taken, and the strongest signals are over-represented in it overall.

{"columns": ["binder", "glycan array binding signal (z-score)"],
 "data": [
  ["FimA-N3 (Actinomyces oris) (protein) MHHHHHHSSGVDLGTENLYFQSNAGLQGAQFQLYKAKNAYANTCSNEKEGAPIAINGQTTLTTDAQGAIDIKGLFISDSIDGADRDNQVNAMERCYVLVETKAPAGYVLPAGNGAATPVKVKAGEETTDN", -0.492],
  ["LlpA (Burkholderia cenocepacia) (protein) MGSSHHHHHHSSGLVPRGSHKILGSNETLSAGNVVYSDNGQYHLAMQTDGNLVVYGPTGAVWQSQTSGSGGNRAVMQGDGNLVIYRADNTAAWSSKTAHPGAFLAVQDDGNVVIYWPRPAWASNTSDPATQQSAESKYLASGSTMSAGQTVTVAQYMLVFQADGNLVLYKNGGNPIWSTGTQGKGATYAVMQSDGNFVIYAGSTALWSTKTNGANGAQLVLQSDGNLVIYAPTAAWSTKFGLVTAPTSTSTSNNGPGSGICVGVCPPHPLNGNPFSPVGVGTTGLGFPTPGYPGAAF", -0.208],
  ["PEB1 (Campylobacter jejuni), Q0P9X8 (protein) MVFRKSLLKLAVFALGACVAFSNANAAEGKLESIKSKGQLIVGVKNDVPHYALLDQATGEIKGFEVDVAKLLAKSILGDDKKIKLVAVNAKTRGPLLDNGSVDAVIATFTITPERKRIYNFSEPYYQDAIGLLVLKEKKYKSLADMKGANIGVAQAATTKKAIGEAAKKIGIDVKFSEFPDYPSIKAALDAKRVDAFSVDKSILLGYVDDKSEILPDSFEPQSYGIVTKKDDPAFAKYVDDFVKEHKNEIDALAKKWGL", -0.108],
  ["AFCNVH (Aspergillus fumigatus) (protein) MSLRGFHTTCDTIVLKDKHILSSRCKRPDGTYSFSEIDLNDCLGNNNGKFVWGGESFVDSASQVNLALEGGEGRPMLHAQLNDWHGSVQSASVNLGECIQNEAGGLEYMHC", -0.24]
]}

Source: the supplement of paper PMC8728848
